System: HOP-92 NSCLC
TEST_METHOD_NOTES: NCI-60 one-dose screen, 48 h
CONDITION: 10 µM unless noted
This is part of a sample that, as a whole, favours compounds with a hit. Of some 83,000 tested, about 20% had one in any assay. Calls of active or inactive are those of the source. The calls were made as follows: active = growth percent below 10; inactive = the rest.
Outcomes you can answer with include only these: 1 for active, 0 for inactive

Here's what some known entries look like.
MOLECULE | TARGET_SYSTEM | ASSIGNED_CLASS
c1ccc(-c2c(-c3ccccc3)[n+](Cc3ccc4ccccc4c3)c(-c3cccc4ccccc34)n2Cc2ccc3ccccc3c2)cc1 | HOP-92 NSCLC | 1
COc1cc(NC(C)CCCNC(=O)CCC(=O)NCCCNCCCCCCCCCCNCCCNC(=O)CCC(=O)NCCCC(C)Nc2cc(OC)cc3cccnc23)c2ncccc2c1 (stereo not drawn) | HOP-92 NSCLC | 0
C[C@H]1[C@H](C)CC[C@]2(C(=O)NCC#CCN3CCN(C)CC3)CC[C@]3(C)C(=CC[C@@H]4[C@@]5(C)Cc6c([nH]c7ccccc67)C(C)(C)[C@@H]5CC[C@]43C)[C@H]12 | HOP-92 NSCLC | 0
O=C(Cc1ccc(/C=C/C(=O)c2nccs2)cc1)Nc1ccccc1 | HOP-92 NSCLC | 0
O=C1c2cccc3c(-c4ccc5c(c4)ncn5C4CCCCC4)ccc(c23)C(=O)N1c1nc2ccccc2s1 | HOP-92 NSCLC | 0

Record request — test call for COc1ccc(C(=O)C2C(C#N)C(C#N)C3c4ccccc4C=CN23)cc1 (stereo not drawn) 0

Record request — test call for `CSc1nc2sc3cccc(Cl)c3n2c(=N)c1C#N` 0

Record request — test call for CC1=CCC(OC(=O)C(C)(O)CCC(O)(C(=O)OC2(C)C=CC(O)(C(C)C)CC2)C(C)C)(C(C)C)CC1 (stereo not drawn) 0

Record request — test call for `C[C@@H](Nc1ncnc2ccc(-c3cnc(N)nc3)cc12)c1ccc(F)cc1` 0

Record request — test call for `O=C1c2ccccc2C(=O)c2c([N+](=O)[O-])ccc(Cl)c21` 0

Record request — test call for `O=C(Cn1c[n+](CC(=O)c2ccc(-c3ccccc3)cc2)c2ccccc21)Nc1cccc2cccnc12` 1

Record request — test call for CN1CCC(=C(c2ccccc2)c2ccccc2)C(c2ccccc2)C1 (stereo not drawn) 0

Record request — test call for `Cc1cccc(NC(=O)Nc2ccc(-n3cnc4cc(-c5ccc(O)cc5)ccc43)cc2)c1` 0

Record request — test call for `O=S(=O)(NCCCNc1nccc(-c2c(-c3cccc(F)c3)nc3sccn23)n1)c1cccc(F)c1` 0

Record request — test call for `CCc1ccc(-c2cn3ccnc3c(-c3ccc4ncn(Cc5ccccc5)c4c3)n2)cc1` 0

Record request — test call for `O=C(CCN1CCCC1)Nc1ccc2c(NCCc3ccccc3)c3ccccc3nc2c1` 1

Record request — test call for `COc1cc(/C(C)=C(\c2ccc(Cl)cc2)c2ccc(OCCN(C)C)cc2)ccc1F` 0

Record request — test call for `CCOc1cccc(-c2nc(N)nc(Nc3ccccc3SSc3ccccc3Nc3nc(N)nc(-c4cccc(OCC)c4)n3)n2)c1` 0

---

Tested on: OVCAR-5 ovarian
TEST_METHOD_NOTES: NCI-60 one-dose screen, 48 h (100 = growth as untreated, 0 = no growth, -100 = all killed)
CONDITION: 10 µM unless noted
About 83,000 compounds went through this panel and 20% of them were active in at least one assay; those are over-represented in the sample as a whole. The source made the active and inactive calls. The calls were made as follows: active = growth percent below 10; inactive = the rest.
METRIC_NAME: growth

MOLECULE | TARGET_SYSTEM | REPORTED_RESULT
CCCCCOc1ccc(/C=N/Nc2cc(C)nc3ccc(Cl)cc23)cc1 | OVCAR-5 ovarian | 93.7% (inactive)
N#C/C(=C\c1ccc(Cl)cc1)n1nnc2cc(F)c(F)cc21 | OVCAR-5 ovarian | 22.2% (inactive)
Cc1ccc(/C=N/NC(=O)CSc2nc3ccccc3c(=O)n2Cc2ccc(S(N)(=O)=O)cc2)cc1 | OVCAR-5 ovarian | 95.6% (inactive)
COc1cc2c(cc1OC)C(=O)/C(=C/c1cc(C)c(O)c(C)c1)S2 | OVCAR-5 ovarian | 64.7% (inactive)
N#Cc1c(NCc2ccccc2I)sc2c1CCCCC2 | OVCAR-5 ovarian | 96.3% (inactive)

Summary: `CCOC(=O)c1cc(C(=O)c2ccc(OC)cc2)n2ccc(/C=C/c3cc[n+](CC(=O)c4ccc(OC)cc4)cc3)cc12` , OVCAR-5 ovarian, growth = 87.1% (inactive)

Summary: `N#Cc1cccc(-c2ccc3c(c2)NC(=O)/C3=C\c2ccc[nH]2)c1` , OVCAR-5 ovarian, growth = 38.5% (inactive)

Summary: `CCOC(=O)[C@@H]1CCCN(S(=O)(=O)c2ccc(S(=O)(=O)N(CC)CC)c(F)c2)C1` , OVCAR-5 ovarian, growth = 95.5% (inactive)

Summary: `C=C1C(=O)O[C@H]2[C@H]1CC/C(CNC(=O)/C=C/c1ccccc1)=C\CC[C@@]1(C)O[C@@H]21` , OVCAR-5 ovarian, growth = -21.6% (active)

Summary: `O=C1CC(=O)OC(c2ccc([N+](=O)[O-])cc2)O1` , OVCAR-5 ovarian, growth = -3.68% (active)

Summary: CC(Sc1nc2ccccc2c(=O)n1CCc1ccc(S(N)(=O)=O)cc1)C(=O)Nc1ccc(Cl)cc1 (centres undefined) , OVCAR-5 ovarian, growth = 85.7% (inactive)

Summary: `O=C(/C=C/c1ccc(Cl)cc1)c1ccc(NC(=O)N2CCN(c3cc4c(cc3F)c(=O)c(C(=O)O)cn4C3CC3)CC2)cc1` , OVCAR-5 ovarian, growth = 103% (inactive)

Summary: CC(=O)O[C@@H]1C2CCC3C(CC[C@@]4(C)C3CC[C@@H]4C(C)N(C)C)[C@@]2(C)CC[C@@H]1NC(=O)C=C(C)C (some centres undefined) , OVCAR-5 ovarian, growth = 83.8% (inactive)

---

Tested on: NCI-H322M lung
TEST_METHOD_NOTES: NCI-60 one-dose screen, 48 h
CONDITION: 10 µM unless noted
This is part of a sample that, as a whole, favours compounds with a hit. Of some 83,000 tested, about 20% had one in any assay. Activity calls are given as the source filed them. Rule for the calls: active = growth percent below 10; inactive = the rest.
Outcomes you can answer with include only these: y (active), n (inactive)

Here's what some known entries look like.
CHEMICAL_STRING | ASSIGNED_CLASS
O=C(/C=C(O)/C=C/c1ccc(SC(F)(F)F)cc1)/C=C/c1ccc(SC(F)(F)F)cc1 | n
CCCCCCOc1ccc(/C=N/Nc2cc(C)nc3ccc(Cl)cc23)cc1 | n

Record request — test call for `Clc1ccc(-c2ccc(CNCC3CCNCC3)o2)c(-c2ccccc2)c1` y

Record request — test call for `C=C(C)[C@@H]1CC[C@]2(C(=O)N3CCN(C)CC3)CC[C@]3(C)[C@H](CC[C@@H]4[C@@]5(C)C/C(=C/c6ccncc6)C(=O)C(C)(C)[C@@H]5CC[C@]43C)[C@@H]12` n

Record request — test call for `O=C(CSc1nc2ccccc2[nH]1)NCc1ccccc1` n

---

Tested on: NCI-H226 lung
TEST_METHOD_NOTES: NCI-60 one-dose screen, 48 h (100 = growth as untreated, 0 = no growth, -100 = all killed)
CONDITION: 10 µM unless noted
About 83,000 compounds went through this panel and 20% of them were active in at least one assay; those are over-represented in the sample as a whole.
Listing: growth of selected compounds
The answer is to be given in %; state only the numeric part.

Before answering, review these 3 worked examples.
COMPOUND | ENDPOINT_UNIT | REPORTED_RESULT
CC(=O)N1N=C(c2ccc(-n3ccc(C(F)(F)F)n3)c(F)c2)CC1c1ccc[nH]1 (centres undefined) | % | 106
COc1ccc(/C=C2\COc3ccc(-c4ccccc4)cc3C2=O)c(OC)c1 | % | 86.6
C=C1C(=O)O[C@H]2[C@H]1CC/C(COC(=O)NCCc1c[nH]c3ccc(OC)cc13)=C\CC[C@@]1(C)O[C@@H]21 | % | 51

Kindly review the next compound as well.
Lookup result for `C=C1C(=O)O[C@H]2[C@H]1CC/C(COC(=O)NCc1c[nH]c3ccc(Br)cc13)=C\CC[C@@]1(C)O[C@@H]21` ; measured growth: 4.62

---

Tested on: SNB-19 CNS
TEST_METHOD_NOTES: NCI-60 one-dose screen, 48 h (100 = growth as untreated, 0 = no growth, -100 = all killed)
CONDITION: 10 µM unless noted
About 83,000 compounds went through this panel and 20% of them were active in at least one assay; those are over-represented in the sample as a whole.
Listing: growth of selected molecules
The answer is to be given in %; state only the numeric part.

Before answering, review these 5 worked examples.
MOLECULE | METRIC_NAME | ENDPOINT_UNIT | REPORTED_RESULT
Cc1cc2nc3c4ccc(Br)cc4n(CCN(C)C)c3nc2cc1C | growth | % | 23.5
NC(=O)CSSCC(N)=O | growth | % | 101
CCOC(=O)Nc1ccc(-c2ccc3c(c2)NC(=O)/C3=C\c2ccc[nH]2)cc1 | growth | % | 99.3
O=S(=O)(NCCNc1nccc(-c2c(-c3cccc(F)c3)nc3sccn23)n1)c1ccccc1 | growth | % | 55.9
O=C1c2ccccc2CCC12OC2c1cn(-c2ccccc2)nc1-c1ccc(Cl)cc1 (stereo not given) | growth | % | 91.9

Kindly review the next molecule as well.
Lookup result for `C=C1C(=O)O[C@H]2[C@H]1CC/C(COC(=O)NCc1c[nH]c3ccc(Cl)cc13)=C\CC[C@@]1(C)O[C@@H]21` ; measured growth: 32.3
